inhibition at 5 min, 1 μM values for the compounds below.
biological target: Iks potassium channel (KCNQ1/KCNE1) (Homo sapiens, UniProt P51787); construct: expressed in transfected cells; host or cells: CHO; assay: Iks channel whole-cell patch clamp (Ion Channel Activity Measurement); format: cell-based; conditions: human, CHO cells stably expressing Iks channel (KCNQ1 and KCNE1), pH 7.4, 1 μM test article, room temperature
Counter-ions that a name gives are not always drawn.
measured.attribute: inhibition at 5 min, 1 μM

>  <compound>
O=S(=O)(c1c(O)ccc2ccccc12)c1c(O)ccc2ccccc12

>  <tested.target>
Iks potassium channel (KCNQ1/KCNE1) (Homo sapiens, UniProt P51787)

>  <result>
25 to 50%

$$$$
>  <compound>
COc1ccc2ccccc2c1Cc1c(O)ccc2ccccc12

>  <tested.target>
Iks potassium channel (KCNQ1/KCNE1) (Homo sapiens, UniProt P51787)

>  <result>
< 25%

$$$$
>  <compound>
COc1ccc2ccccc2c1Cc1c(OCC[N+]2(C)CCOCC2)ccc2ccccc12 [Compound A130-2, formate]

>  <tested.target>
Iks potassium channel (KCNQ1/KCNE1) (Homo sapiens, UniProt P51787)

>  <result>
< 25%

$$$$
>  <compound>
CC[N+](C)(CC)CCOc1ccc2ccccc2c1Sc1c(OC)ccc2ccccc12

>  <tested.target>
Iks potassium channel (KCNQ1/KCNE1) (Homo sapiens, UniProt P51787)

>  <result>
< 25%

$$$$
>  <compound>
CCN(CC)CCCOc1ccc2ccccc2c1Cc1c(O)ccc2ccccc12

>  <tested.target>
Iks potassium channel (KCNQ1/KCNE1) (Homo sapiens, UniProt P51787)

>  <result>
< 25%

$$$$
>  <compound>
Cc1cc2ccccc2c(Cc2c(O)ccc3ccccc23)c1O

>  <tested.target>
Iks potassium channel (KCNQ1/KCNE1) (Homo sapiens, UniProt P51787)

>  <result>
< 25%

$$$$
>  <compound>
Oc1ccc2ccccc2c1Cc1cccc2ccccc12

>  <tested.target>
Iks potassium channel (KCNQ1/KCNE1) (Homo sapiens, UniProt P51787)

>  <result>
25 to 50%

$$$$
>  <compound>
CCN(CC)CCOc1ccc2ccccc2c1Sc1c(O)ccc2ccccc12

>  <tested.target>
Iks potassium channel (KCNQ1/KCNE1) (Homo sapiens, UniProt P51787)

>  <result>
25 to 50%

$$$$
>  <compound>
CN(C)CCOc1ccc2ccccc2c1Cc1c(O)ccc2ccccc12

>  <tested.target>
Iks potassium channel (KCNQ1/KCNE1) (Homo sapiens, UniProt P51787)

>  <result>
25 to 50%

$$$$
>  <compound>
COc1ccc2ccccc2c1Cc1c(OC)ccc2ccccc12

>  <tested.target>
Iks potassium channel (KCNQ1/KCNE1) (Homo sapiens, UniProt P51787)

>  <result>
< 25%

$$$$
>  <compound>
COc1ccc2ccccc2c1C(O)c1c(OC)ccc2ccccc12

>  <tested.target>
Iks potassium channel (KCNQ1/KCNE1) (Homo sapiens, UniProt P51787)

>  <result>
< 25%

$$$$

Reference for the values: patent US12187681B2
